These data points were gathered from patent US7019109B2.

Target: human SSTR4 (Homo sapiens, UniProt P31391)
Construct: expressed in transfected cells; host or cells: CHO-K1 cells and CCL39 cells
Sequence (P31391 whole entry): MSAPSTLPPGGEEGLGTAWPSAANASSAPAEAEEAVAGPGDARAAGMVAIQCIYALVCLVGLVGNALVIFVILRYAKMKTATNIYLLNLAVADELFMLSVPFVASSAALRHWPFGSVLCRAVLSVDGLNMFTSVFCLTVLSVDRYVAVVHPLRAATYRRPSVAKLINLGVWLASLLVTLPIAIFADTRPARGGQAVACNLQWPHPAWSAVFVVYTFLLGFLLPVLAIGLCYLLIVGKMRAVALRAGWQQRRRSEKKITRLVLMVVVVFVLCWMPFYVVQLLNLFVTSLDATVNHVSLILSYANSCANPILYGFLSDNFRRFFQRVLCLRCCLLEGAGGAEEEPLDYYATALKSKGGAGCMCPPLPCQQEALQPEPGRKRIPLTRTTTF
Test: Displacement of 125I-[Leu8,D-Trp22,Tyr25]-SRIF-28 from cloned SSTR4 (receptor autoradiography)
Format: binding
Conditions: inhibition of radioligand binding of 125I-[Leu8,D-Trp22,Tyr24]SRIF-28, cloned receptor; table; read-out: IC50 (nM) mSSTR4
Where a SMILES comes first, the peptide text is derived from it. Bridges are numbered along the chain shown (N, C = ends). [ ]: non-standard residue; d: D form. The star is where a group is joined. NMePhe(4-CH2NHiPr) = CN[C@@H](Cc1ccc(CNC(C)C)cc1)C(=O)O; Tyr(Nα-carbamoyl) = NC(=O)N[C@@H](Cc1ccc(O)cc1)C(=O)*; Phe(4-CH2NHiPr) = CC(C)NCc1ccc(C[C@H](N)C(=O)O)cc1; d2Nal = N[C@H](Cc1ccc2ccccc2c1)C(=O)O
quantity measured: IC50

Some solved cases for reference:
-- ask Any idea what IC50 was measured for CC(C)NCc1ccc(C[C@@H]2NC(=O)[C@@H](Cc3c[nH]c4ccccc34)NC(=O)[C@H](Cc3ccccc3)NC(=O)[C@H](Cc3ccccc3)NC(=O)[C@H](CCCCN)NC(=O)[C@H](NC(=O)[C@H](Cc3ccc(O)cc3)NC(N)=O)CSSC[C@@H](C(=O)O)NC(=O)[C@H](CO)NC(=O)[C@H]([C@@H](C)O)NC(=O)[C@H](Cc3ccccc3)NC(=O)[C@H]([C@@H](C)O)NC2=O)cc1 [Peptide No. 14C] ({Tyr(Nα-carbamoyl)}-[dC]KFF[dW][Phe(4-CH2NHiPr)]TFTSC-OH; disulfide 1-11) ?
-- reply 487 nM

-- ask Any idea what IC50 was measured for CC(C)NCc1ccc(C[C@H]2C(=O)N[C@@H]([C@@H](C)O)C(=O)N[C@@H](Cc3ccc(O)cc3)C(=O)N[C@@H]([C@@H](C)O)C(=O)N[C@@H](CO)C(=O)N[C@H](C(=O)O)CSSC[C@H](N)C(=O)N[C@@H](CCCCN)C(=O)N[C@@H](Cc3ccccc3)C(=O)N[C@@H](Cc3ccccc3)C(=O)N[C@H](Cc3ccc4ccccc4c3)C(=O)N2C)cc1 [Peptide No. 9A] (H-CKFF[d2Nal][NMePhe(4-CH2NHiPr)]TYTSC-OH; disulfide 1-11) ?
-- reply > 1000 nM

-- ask Any idea what IC50 was measured for CC(C)NCc1ccc(C[C@@H]2NC(=O)[C@@H](Cc3c[nH]c4ccccc34)NC(=O)[C@H](Cc3ccccc3)NC(=O)[C@H](Cc3ccccc3)NC(=O)[C@H](CCCCN)NC(=O)[C@@H](N)CSSC[C@@H](C(=O)O)NC(=O)[C@H](CO)NC(=O)[C@H]([C@@H](C)O)NC(=O)[C@H](Cc3ccc(O)cc3)NC(=O)[C@H]([C@@H](C)O)NC2=O)cc1 [2A] (H-CKFF[dW][Phe(4-CH2NHiPr)]TYTSC-OH; disulfide 1-11) ?
-- reply > 10000 nM

Attention now shifts to the item below.
-- ask Any idea what IC50 was measured for CC(C)NCc1ccc(C[C@@H]2NC(=O)[C@@H](Cc3c[nH]c4ccccc34)NC(=O)[C@H](Cc3ccccc3)NC(=O)[C@H](Cc3ccccc3)NC(=O)[C@H](CCCCN)NC(=O)[C@@H](NC(=O)[C@H](Cc3ccc(O)cc3)NC(N)=O)CSSC[C@@H](C(=O)O)NC(=O)[C@H](CO)NC(=O)[C@H]([C@@H](C)O)NC(=O)[C@H](Cc3ccccc3)NC(=O)[C@H]([C@@H](C)O)NC2=O)cc1 [Peptide No. 14A] ({Tyr(Nα-carbamoyl)}-CKFF[dW][Phe(4-CH2NHiPr)]TFTSC-OH; disulfide 1-11) ?
-- reply > 1000 nM
